The reported measurements were obtained from patent US20250027068.

This listing pairs proteins with measured Enzyme Activity Endpoint Assay (purified): Fc.
Target: pooled human IgG
value.type: Enzyme Activity Endpoint Assay (purified): Fc (ng/µL)

* PRT-145 (protein) MANQEIRYSEVTPYHITSVWTKGVTPPANFTQGEDVFHAPYVANQGWYDITKTFNGKDDLLCGAATAGNMLHWWFDQNKDQIKRYLEEHPEKQKINFNGEQMFDVKEAIDTKNHQLDSKLFEYFKEKAFPYLSTKHLGVFPDHVIDMFINGYRLSLTNHGPTPVKEGSKDPRGGIFDAVFTRGDQSKLLTSRHDFKEKTLNTISQLIKQELQSGKALGLSHTYANVRINHVINLWGADFDAEGNLEAIYVTDSDSNASIGMKKYFVGKNSAGKVAISAKEIKEDNIGAQVLGLFTLSTGQDSWNQTN | 207
* PRT-630 (protein) MQITSVWTKGVTPLTPEQFRYNNEDVIHAPYLAHQGWYDITKAFDGKDNLLCGAATAGNMLHWWFDQNKEEIENYLKKYPEKQKIIFNNQELFDLKAAIDTKDSQTNSQLFNYFRDKAFPNLSARQLGVMPDLVLDMFINGYYLNVFKTQSTDVNRPYQDKDKRGGIFDAVFTRGDQTTLLTARHDLKNKGLNDISTIIKQELTEGRALALSHTYANVSISHVINLWGADFNAEGNLEAIYVTDSDANASIGMKKYFVGINAHGHVAISAKKIEGENIGAQVLGLFTLSSGQEIWEQLSLEHHHHHH | 464
* PRT-163 (protein) MANQEIRYSEVTPYHVTSVWTKGVTPPANFTQGEDVFHAPYVANQGWYDITKTFNGKDDLLCGAATAGNMLHWWFDQNKDQIKRYLEEHPEKQKINFNGEQMFDVKEAIDTKNDQTNSELFNYFKEKAFPYLSTKHLGVFPDHVIDMFINGYRLSLTNHGPTPVKEGSKDPRGGIFDAVFTRGDQSKLLTSRHDFKEKNLKEISDLIKKELTEGKALGLSHTYANVRINHVINLWGADFDSNGNLKAIYVTDSDSNASIGMKKYFVGVNSAGKVAISAKEIKEDNIGAQVLGLFTLSTGQDSWNQTN | 184
* PRT-158 (protein) MANQEIRYSEVTPYHVTSVWTKGVTPPTDFIKGEDVFHAPYKAHQGWYDITKTFNGKDDLLCGAATAGNMLHWWFDQNKDQIKRYLEEHPEKQKINFNGEQMFDVKEAIDTKNHQLDSKLFEYFKEKAFPYLSTKHLGVFPDHVIDMFINGYRLSLTNHGPTPVKEGSKDPRGGIFDAVFTRGDQSKLLTSRHDFKEKNLKEISDLIKKELQEGKALGLSHTYANVRINHVINLWGADFDSNGNLKAIYVTDSDSNASIGMKKYFVGVNSAGKVAISAKEIKEDNIGAQVLGLFTLSTGQDSWNQTN | 163
* PRT-321 (protein) MTITSVWTKGVTPPTPEDFRENNEDVLHAPYVANQGWYDITKTFDGKDNLLCGAATAGNMLHWWFDQNKEEIERYLKKHPEKQKIIFGNQELFDVKAAIDTKDSQTNSKLFDYFRDKAFPNLSARQLGVMPDLVLDMFINGYYLNLPKTQSTDVNRPYQDKDKRGGIFDAVFTRGDQTTLLTARHDLKNKGLNEISDLIKQELTEGKALALSHTYANVRINHVINLWGADFDAEGNLIAIYVTDSDANASIGMKKYAVGVNANGKVAISAKKIEGDNIGAQVLGLFTLSTGQDQWQKLS | 337
* PRT-666 (protein) MQITSVWTKGVTPPTPEQFRNNNEDVFHAPYLANQGWYDITKTFNGKDDLLCGAATAGNMLHWWFDQNKTEIEAYLKKHPEKQKIIFNNQELFDLKKAIDTKDSQTNSQLFNYFRDKAFPNLSARQLGVMPDLVLDMFINGYYLNVTKTQSTDVNRPYQDKDKRGGIFDAVFTRGDQTTLLTSRHDLKNKGLNEISDLIKQELTEGKALALSHTYANVSINHVINLWGADFNAEGNLEAIYVTDSDSNASIGMKKYFVGVNASGKVAISAKKIEGENIGAQVLGLFTLSSGKDIWQKLSLEHHHHHH | 132
* PRT-82 (protein) MANQEIRYSEVTPSTITSVWTKGVTPPAQFIQNEDVFHAPYVANQGWYDITKTFNGKDDLLCGAATAGNMLHWWFDQNKEEIEAYLKKHPEKQKIMFGDQELLDVRKVINTKDDQTNSALFNYFKDKAFPNLSARRLGVMPDLVLDMFINGYYLNVGKTQTTDVNRTYQNKDRRGGIFDAVFTRGDQSKLLTARHDFKEKNLNEISDLIKQELTEGKALALSHTYANVSINHVINLWGADFDANGNLEAIYVTDSDSNASIGMKKYFVGVNSAGKVAISAKEIEEDNIGAQVLGLFTLSTGQDIWNKTN | 67
* PRT-118 (protein) MRNATEAYNKETPKTITSVWTKGVTPPTPEQFTKQNEDVFHAPYVANQGWYDITKTFNGKDNLLCGAATAGNMLHWWFDQNKTEIENYLKKHPEKQKIIFNNQELFDLKAAIDTKDSQTNSALFNYFRDKAFPNLSARQLGVMPDHVLDMFINGYYLNVNKTQSTDVNRPYDDKDKRGGIFDAVFTRGDQTTLLTARHDLKNKGLNEISTLIKQELTEGRALALSHTYANVSISHVINLWGADFNAEGNLEAIYVTDSDANASIGMKKYFVGKNASGKVAISAKKIEGDNIGAQVLGLFTLSSGKDIWQKLS | 85
